study-target: ERβ (Homo sapiens)
Sequence (Q92731 whole entry): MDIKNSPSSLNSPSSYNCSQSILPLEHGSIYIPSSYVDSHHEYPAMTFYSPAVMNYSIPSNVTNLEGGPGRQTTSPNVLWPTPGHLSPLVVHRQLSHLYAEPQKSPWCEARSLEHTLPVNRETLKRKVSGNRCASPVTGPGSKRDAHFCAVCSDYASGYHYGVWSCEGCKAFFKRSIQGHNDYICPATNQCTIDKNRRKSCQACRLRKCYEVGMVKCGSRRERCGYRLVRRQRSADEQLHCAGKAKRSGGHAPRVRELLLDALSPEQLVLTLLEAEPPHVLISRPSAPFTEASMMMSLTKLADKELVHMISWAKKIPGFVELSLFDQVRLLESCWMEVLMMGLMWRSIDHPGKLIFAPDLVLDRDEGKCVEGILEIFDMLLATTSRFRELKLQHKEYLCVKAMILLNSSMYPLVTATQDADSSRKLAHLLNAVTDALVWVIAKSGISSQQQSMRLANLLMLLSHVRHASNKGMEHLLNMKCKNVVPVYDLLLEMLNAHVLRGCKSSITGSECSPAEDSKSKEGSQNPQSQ
Format: cell-based
setup-conditions: 2-h; 4HT, ICI, PHTTP 1 μM; ActD 1 μg/ml; Flavo 100 nM; plus E2 10 nM
*1 amine or outer side, *2 acyl side, *3 side chain or, on linkers, in order; H or OH if unused. Where a SMILES comes first, the peptide text is derived from it. Bridges are numbered along the chain shown (N, C = ends). Roman numbers before positions name the chains, in order. [ ]: non-standard residue; d: D form. Actinocin(9to1) = Cc1c2oc3c(C)ccc(C(=O)[*:1])c3nc-2c(C(=O)[*:2])c(N)c1=O; NMeV = CN[C@H](C(=O)O)C(C)C; Sar = CNCC(=O)O
# decrease of E2-induced stimulation of dsRED2 mRNA per record follows
recorded-endpoint: decrease of E2-induced stimulation of dsRED2 mRNA

- compound: "CN1CC[C@H](c2c(O)cc(O)c3c(=O)cc(-c4ccccc4Cl)oc23)[C@H](O)C1"
  study-target: "ERβ (Homo sapiens)"
  readout-value: "> 2 fold"
- compound: "Cc1c2oc3c(C)ccc(C(=O)N[C@@H]4C(=O)N[C@H](C(C)C)C(=O)N5CCC[C@H]5C(=O)N(C)CC(=O)N(C)[C@@H](C(C)C)C(=O)O[C@@H]4C)c3nc-2c(C(=O)N[C@@H]2C(=O)N[C@H](C(C)C)C(=O)N3CCC[C@H]3C(=O)N(C)CC(=O)N(C)[C@@H](C(C)C)C(=O)O[C@@H]2C)c(N)c1=O [actinomycin D] (I: T[dV]P[Sar][NMeV] / II: T[dV]P[Sar][NMeV]; ester I:1-I:C, II:1-II:C; linker I:N-II:N via Actinocin(9to1))"
  study-target: "ERβ (Homo sapiens)"
  readout-value: "> 2 fold"

====

# decrease of E2-induced stimulation of dsRED2 mRNA per record follows
study-target: UniProt:Q92731
Type: cell-based
setup-conditions: 2-h; 4HT, ICI, PHTTP 1 μM; ActD 1 μg/ml; Flavo 100 nM; plus E2 10 nM
recorded-endpoint: decrease of E2-induced stimulation of dsRED2 mRNA

- compound: "C[C@]12CC[C@@H]3c4ccc(O)cc4C[C@@H](CCCCCCCCC[S+]([O-])CCCC(F)(F)C(F)(F)F)[C@H]3[C@@H]1CC[C@@H]2O (stereo partly drawn) [ICI182,780, ICI 182,780]"
  study-target: "UniProt:Q92731"
  readout-value: "> 2 fold"
- compound: "Oc1ccc(-c2c(-c3ccccc3)nn3c(C(F)(F)F)cc(C(F)(F)F)nc23)cc1 [PHTTP]"
  study-target: "UniProt:Q92731"
  readout-value: "> 2 fold"
- compound: "CC/C(=C(\\c1ccc(O)cc1)c1ccc(OCCN(C)C)cc1)c1ccccc1 [4HT, 4-Hydroxytamoxifen]"
  study-target: "UniProt:Q92731"
  readout-value: "> 2 fold"

====

Tested on: zebrafish
setup-conditions: 20 μM, 3 dpf
recorded-endpoint: Dead/Abnormal zebrafish / total

- compound: "CCC1(c2ccccc2)C(=O)NC(=O)NC1=O [Phenobarbital sodium]"
  recorded-endpoint: "Dead/Abnormal zebrafish / total"
  readout-value: "1/18"
- compound: "O=c1c(O)c(-c2ccc(O)cc2)oc2cc(O)cc(O)c12 [Kaempferol]"
  recorded-endpoint: "Dead/Abnormal zebrafish / total"
  readout-value: "0/18"
- compound: "C[C@]12C[C@H](O)[C@H]3[C@@H](CCC4=CC(=O)CC[C@@]43C)[C@@H]1CC[C@@H]2C(=O)CO [Corticosterone]"
  recorded-endpoint: "Dead/Abnormal zebrafish / total"
  readout-value: "2/18"
- compound: "C[C@@H]1C[C@@H]([C@H](O)CC2CC(=O)NC(=O)C2)C(=O)[C@@H](C)C1 [Cycloheximide]"
  recorded-endpoint: "Dead/Abnormal zebrafish / total"
  readout-value: "8/18"
- compound: "O=C1C2(Cl)C3(Cl)C4(Cl)C(Cl)(Cl)C5(Cl)C3(Cl)C1(Cl)C5(Cl)C24Cl (centres unmarked) [Kepone]"
  recorded-endpoint: "Dead/Abnormal zebrafish / total"
  readout-value: "0/18"
